B1: EEHEE_rd4_0363 (parent)
chain: VTVDIKGMEYHFDNPEEAKKFAERMAKELGGELKVENGTLKVE

# Variants of: B1
# protocol-description: folding stability dG (cDNA display proteolysis); higher = more stable
# conditions: PBS, room temperature
Label TRUE when folding stability dG is at or above 2 kcal/mol; otherwise label FALSE.

mutant-code | label-class
E17D | TRUE
G38Y | FALSE
A26I | FALSE
A26K | FALSE
T39F | FALSE
G7F | FALSE
E36W | FALSE
F12W | FALSE
H11S | FALSE
N14H | FALSE
G38Q | FALSE
E36N | FALSE
D4S | TRUE
L40C | FALSE
K19Y | TRUE
G38L | FALSE
T2G | FALSE
A22V | FALSE
E23V | FALSE
E28P | FALSE
Y10L | FALSE
L40N | FALSE
M25P | FALSE
P15Q | FALSE
G30I | FALSE
E36D | FALSE
V3E | FALSE
D4V | TRUE
K27R | TRUE
M8F | TRUE
E23Q | FALSE
G38N | FALSE
E17G | FALSE
E43M | TRUE
V35G | FALSE
D4I | TRUE
G30F | FALSE
T2Y | FALSE
E16M | FALSE
G38H | FALSE
M25T | FALSE
E36C | TRUE
G38P | FALSE
K6L | TRUE
